Parameter inhibition at 10 µM: see the listing below.
- Test system: MOLT-4
- experiment_summary: NCI-60 anticancer screening (SRB)
- Assay type: cell-based
- experimental_setup: Homo sapiens; MOLT-4, leukemia; one dose 10 μM; read-out: Growth Inhibition Percentage (GI %)
result_type: inhibition at 10 µM

molecule: CCOC(=O)C1=C(N)N(c2ccc(Cl)cc2)C2=C(C(=O)CC(C)(C)C2)C1c1ccc(N2CCOCC2)cc1 (racemic)
study_system: MOLT-4
result: < 10%

molecule: CCOC(=O)C1=C(N)N(c2ccc(C)cc2)C2=C(C(=O)CC(C)(C)C2)C1c1cccnc1 (racemic) [12e]
study_system: MOLT-4
result: < 10%

molecule: CCOC(=O)C1=C(N)N(c2ccc(C)cc2)C2=C(C(=O)CC(C)(C)C2)C1c1ccccc1OC (racemic)
study_system: MOLT-4
result: < 10%

molecule: CCOC(=O)C1=C(N)N(c2ccccc2)C2=C(C(=O)CC(C)(C)C2)C1c1cccnc1 (racemic) [12d]
study_system: MOLT-4
result: < 10%

molecule: CCOC(=O)C1=C(N)N(c2ccccc2)C2=C(C(=O)CC(C)(C)C2)C1c1ccc(F)cc1 (racemic)
study_system: MOLT-4
result: < 10%

molecule: CCOC(=O)C1=C(N)N(c2ccccc2)C2=C(C(=O)CC(C)(C)C2)C1c1cccc(Cl)c1Cl (racemic) [10a]
study_system: MOLT-4
result: 60%

molecule: CCOC(=O)C1=C(N)N(c2ccc(Cl)cc2)C2=C(C(=O)CC(C)(C)C2)C1c1ccc(Cl)cc1Cl (racemic) [10d]
study_system: MOLT-4
result: 71%

molecule: CCOC(=O)C1=C(N)N(c2ccc(C)cc2)C2=C(C(=O)CC(C)(C)C2)C1c1ccc(OC)cc1 (racemic)
study_system: MOLT-4
result: < 10%

molecule: CCOC(=O)C1=C(N)N(c2ccc(Cl)cc2)C2=C(C(=O)CC(C)(C)C2)C1c1ccccn1 (racemic) [12c]
study_system: MOLT-4
result: < 10%

molecule: CCOC(=O)C1=C(N)N(c2ccc(C)cc2)C2=C(C(=O)CC(C)(C)C2)C1c1ccc([N+](=O)[O-])cc1 (racemic)
study_system: MOLT-4
result: < 10%

molecule: CCOC(=O)C1=C(N)N(c2ccc(Cl)cc2)C2=C(C(=O)CC(C)(C)C2)C1c1ccccc1Br (racemic)
study_system: MOLT-4
result: < 10%

molecule: CCOC(=O)C1=C(N)N(c2ccccc2)C2=C(C(=O)CC(C)(C)C2)C1c1ccc(OC)cc1 (racemic)
study_system: MOLT-4
result: 14%

molecule: CCOC(=O)C1=C(N)N(c2ccc(Cl)cc2)C2=C(C(=O)CC(C)(C)C2)C1c1ccc(Cl)cc1 (racemic)
study_system: MOLT-4
result: 89%

molecule: CCOC(=O)C1=C(N)N(c2ccc(Cl)cc2)C2=C(C(=O)CC(C)(C)C2)C1c1ccc(OC)cc1 (racemic)
study_system: MOLT-4
result: < 10%

molecule: CCOC(=O)C1=C(N)N(c2ccc(Cl)cc2)C2=C(C(=O)CC(C)(C)C2)C1c1ccccc1OC (racemic)
study_system: MOLT-4
result: 89%
